TESTED_SYSTEM: RSV-F of RSV subtype A strain A2 (1540) (respiratory syncytial virus subtype A, …, UniProt P03420 26-574)
ASSAY_EXPLANATION: cell-based or functional assay
So I've got a bunch of binders here, and I need their IC50 [pM] for RSV A2 Neutralization, Trial 4 values.
Give bare numbers, in pM.

H1H3592P (antibody, V domains shown) VH: EVQLVESGGDLVQPGRSLRLSCVASGFTFDDYAMHWVRQAPGKGLEWVSGVSWSGSTVGYADSVKGRFTVSRDNAQKSLYLQMNSLRAEDTALYYCVKDAYKWNYYYYGLDVWGQGTTVTVSS VL: EIVMTQSPATLSVSPGERATLSCRASQTILSNLAWYLQKPGQAPRLLIYGASTRATGLPARFSGSGSGTEFTLTISSLQSEDFAVYYCQQYNNWPLTFGGGTKVEIK	6
H1H3591P (antibody, V domains shown) VH: EVQLVESGGGLVQPGRSLRLSCAASGFTFDDYAMHWVRQTPGKGLEWISGISWSSGTIVYADSVKGRFTISRDNAKNSLYLQMNSLRGEDTALYHCAKDGYRWKSYSYGLDVWGQGTTVTVSS VL: EIVMTQSPATLSLSPGERATLSCRPSQSVINNLAWYQQKPGQAPRLLIFGASSRATGIPARFSGSGSGTEFTLTISSLQSEDFALYYCQQYNNWPLTFGGGTKVEIK	6

Proceeding to the next binder to report its IC50 [pM] for RSV A2 Neutralization, Trial 4.
Data request: Give the reported IC50 [pM] for RSV A2 Neutralization, Trial 4 for this binder. H1H3567P (antibody, V domains shown) VH: QVQLVQSGAEVKKPGASVKVSCKASGYTLTGYYLHWVRQAPGQGLEWMGWINPTSGGTNYAQKFQGRVTMTRDTSISAAFMELSRLRSDDTAVYHCAREFWPHGMDVWGQGTTVTVSS VL: AIQMTQSPSSLSASVGDRVTITCRASQAIRNDLGWYQQKPGKAPKLLIYASSSLQSGVPSRFSGSGSGTDFTLTISSLQPEDFATYYCLADYKYTWTFGQGTKVEIK
Data returned: 257

The measurements presented in this section are drawn from patent US20140271653A1.
